system: UACC-62 melanoma; assay: NCI-60 one-dose screen, 48 h; conditions: 10 µM unless noted
This is part of a sample that, as a whole, favours compounds with a hit. Of some 83,000 tested, about 20% had one in any assay. Activity calls are given as the source filed them. How the source made its calls: active means growth percent below 10; inactive means the rest.
Possible outcomes: y = active, n = inactive

Substance smiles	Label
Cc1ccc(-c2cc3nc(C(Cl)Cl)nc(-c4cccnc4)n3n2)cc1	n
COc1cc(NC(N)=NCCC(C)(C)Oc2ccc(C(F)(F)F)cc2)ncc1C#N	y
CC(C)(C)n1cc(-c2ccnc(NCCCNS(=O)(=O)c3cccc(F)c3)c2)c(-c2cccc(O)c2)n1	n
CCCCCc1cc[n+](CC(=O)c2ccc([N+](=O)[O-])cc2)cc1	n
COc1ccc(S(=O)(=O)n2cc(C(=O)C(=O)Nc3ccncc3)c3ccccc32)cc1F	n
COc1ccc2c(c1)[nH]c(=O)c1c3cccc(F)c3cn21	n
N#Cc1c(-c2ccccc2)nc(SCC(=O)N2CCN(c3ccccc3)CC2)[nH]c1=O	n
O=C(c1ccccc1)c1c(/C=C/c2ccccc2)c2ccccc2[nH]c1=O	n
O=[N+]([O-])c1ccc(/C=C/C2(CCl)OCCO2)cc1	n
COc1ccc(-c2cnoc2-c2ccc(OC)cc2O)cc1	n

---

tested on: RXF 393 renal; experiment: NCI-60 one-dose screen, 48 h; settings: 10 µM unless noted
The panel holds about 83,000 compounds, 20% with a hit somewhere; the sample as a whole holds those more often. Calls of active or inactive are those of the source. The calls were made as follows: active = growth percent below 10; inactive = the rest.
Possible outcomes: active, inactive

Compound	System tested	Label
O=c1c2sc3ncccc3c2nnn1-c1ccccc1	RXF 393 renal	inactive
Fc1ccc(CNCCNc2ncnc3c2cnn3-c2ccccc2)cc1	RXF 393 renal	inactive
COc1ccccc1CNCCCN1C(=O)c2ccc3c4c(ccc(c24)C1=O)C(=O)N(CCCNCCCCNCCCN)C3=O	RXF 393 renal	active
OB(O)c1cccc(-c2nc3ccc4[nH]ncc4c3c3c2CCCC3)c1F	RXF 393 renal	active
Cc1c(C(N)=O)sc2c1c(=O)n(Cc1ccccc1)c1nnc(Nc3ccccc3)n21	RXF 393 renal	inactive
CN1CCN(CCCOc2ccc3nc(Nc4ccc(Cl)c(C(F)(F)F)c4)ccc3c2)CC1	RXF 393 renal	inactive
Cc1ccc(CSC(=N)N)cc1C	RXF 393 renal	inactive
C=C1CCC2C3(C)COC(c4c(OC)cccc4OC)OC3CCC2(C)C1C/C=C1/C(=O)OCC1O (stereo unspecified)	RXF 393 renal	active
Clc1ccc2c(NC3CCC(NC4CCCCC4)CC3)ccnc2c1 (stereo unspecified)	RXF 393 renal	inactive
CCN(CC)CCCC(C)Nc1c2ccc(Cl)cc2nc2cc(OC)c(OC)cc12 (stereo unspecified)	RXF 393 renal	active
N=C(N)c1ccc(-c2cc(Cl)cc(Cl)c2)cn1	RXF 393 renal	inactive

---

test system: HOP-92 NSCLC; experiment: NCI-60 one-dose screen, 48 h (100 = growth as untreated, 0 = no growth, -100 = all killed); settings: 10 µM unless noted
This is part of a sample that, as a whole, favours compounds with a hit. Of some 83,000 tested, about 20% had one in any assay.

Compound	Uom	growth
C=C1C(=O)O[C@H]2[C@H]1CC/C(Cn1cc(-c3cccc(Cl)c3)nn1)=C\CC[C@@]1(C)O[C@@H]21	%	-73.2
O=C(Nc1ccc2c(c1)OCCO2)C(=O)c1c[nH]c2ccccc12	%	1.01
O=C1/C(=C/c2ccc(Cl)cc2)CN(C(=O)CCN2CCC(=NO)CC2)C/C1=C\c1ccc(Cl)cc1	%	-39.1
C=C(C)[C@@H]1C[C@@H]2Cc3ccc(Cl)c(C)c3N1O2	%	77.5
N#Cc1c(Nc2ccccc2)nc2n(c1=O)-c1ccccc1Sc1ccccc1-2	%	58.7
NC1=NC(SCc2ccccc2CCl)c2ncn(Cc3ccccc3CCl)c2N1 (stereo unspecified)	%	24
CCN(CC)c1ccc(CNc2ccnc3ccccc23)cc1	%	-6.79
CC(NNC(C)c1ccccc1)c1ccccc1 (stereo unspecified)	%	96.4
OB(O)c1cccc(-c2nc3ccc4[nH]ncc4c3c3c2CCCC3)c1F	%	27.1
CCC1=CCC[C@@]2(C)CCC[C@@]3(C)CCCC(C)(C)[C@]1([O-])[O+]32	%	87.8
COc1cccc(/C=C/C(=O)Nc2cc(OC)c3c(c2)OCO3)c1	%	86.5

---

Quick list: growth per entry.
Tested on: HOP-62 NSCLC
Test: NCI-60 one-dose screen, 48 h (100 = growth as untreated, 0 = no growth, -100 = all killed)
Conditions: 10 µM unless noted
Protocol: Growth inhibition of the HOP-62 human Non-Small Cell Lung tumor cell line is measured as a screen for anti-cancer activity. Cells are grown in 96 well plates and exposed to the test compound for 48 hours. Compounds are tested at a single concentration, which is 10^-5 M for most compounds. The reported endpoint is percent growth (GI% or GIPRCNT), where numbers from 0 - 100% represent growth inhibition, and numbers from -100% - 0 represent cell death. […]
Compounds without any hit were thinned out: in the full panel of roughly 83,000, 20% have a hit.
Measured metric: growth (%)

Compound	System tested	Observed value
COc1ccc(/C=C2\N=C(c3ccccc3)N(C(=O)c3ccccc3O)NC2=O)cc1	HOP-62 NSCLC	99.1
COC(=O)c1cc(=O)nc(N/N=C/c2ccco2)s1	HOP-62 NSCLC	103
CCOC(=O)C1CCNC(=O)C1=O (stereo unspecified)	HOP-62 NSCLC	112
OCCCCCCNc1ncnc2cc(Cl)ccc12	HOP-62 NSCLC	88.5
O=C1CS/C(=N\Nc2cc(=O)[nH]c3ccccc23)N1c1ccccc1	HOP-62 NSCLC	86.6
Cc1ccc(S(=O)(=O)/C(=C\c2ccc(Cl)cc2)C(=O)c2ccccc2)cc1	HOP-62 NSCLC	104
CC12CCC3C4(C)COC(c5ccco5)OC4CCC3(C)C1CC(C1=CCOC1=O)O2 (stereo unspecified)	HOP-62 NSCLC	105
COc1ccc(-c2[nH]nc(N)c2-c2cc(OC)c3c(c2)OCO3)cc1	HOP-62 NSCLC	59.8
Cc1nc2ncccc2nc1Nc1ccc(S(=O)(=O)Nc2cncs2)cc1	HOP-62 NSCLC	94
OB(O)c1cccc(-c2nc3ccc4[nH]ncc4c3c3c2CCCC3)c1F	HOP-62 NSCLC	29.3
COc1ccc(-c2ccc(-c3ccc(C(=N)N)s3)s2)cc1Cl	HOP-62 NSCLC	70.9

---

test system: HCC-2998 colon; assay: NCI-60 one-dose screen, 48 h (100 = growth as untreated, 0 = no growth, -100 = all killed); settings: 10 µM unless noted
Compounds without any hit were thinned out: in the full panel of roughly 83,000, 20% have a hit.
Quick list: growth per entry.
Measured metric: growth (%)

Compound	Uom	Observed value
O=C1NC(=C(Cl)Cl)/C(=N/S(=O)(=O)N2CCC(C3(C(F)(F)F)N=N3)CC2)N1	%	60.5
COc1ccc(C(=O)n2nc(/C=C/c3ccc(O)c(OC)c3)cc2/C=C/c2ccc(O)c(OC)c2)cc1	%	16.4
Cc1cc(N/N=C/c2nc(-c3ccc(Br)cc3)oc2C)c2cc(Cl)ccc2n1	%	96.1
O=C(Oc1ccccc1[N+](=O)[O-])C1CCCN1C(=O)OCc1ccccc1 (stereo not given)	%	101
O=[N+]([O-])c1ccc(C(c2ccccc2)c2ccccc2)cc1	%	92

---

Quick list: growth per entry.
tested on: LOX IMVI melanoma; assay: NCI-60 one-dose screen, 48 h (100 = growth as untreated, 0 = no growth, -100 = all killed); conditions: 10 µM unless noted
Compounds without any hit were thinned out: in the full panel of roughly 83,000, 20% have a hit.

Molecule	growth (%)
COC(=O)c1cc2cc(-c3ccc(OC)cc3)cnc2[nH]1	25.2
CC12CCC3C4(C)COC(c5ccccc5Cl)OC4CCC3(C)C1CC(C1=CCOC1=O)O2 (centres undefined)	58.6
NC(=S)N/N=C(/CCN1CCCC1)CC(C1=C(O)C2=CCCCC2OC1=O)c1ccccc1 (centres undefined)	56
N/C(=N\C(N)=N\c1nc2ccccc2s1)c1ccncc1	55.8
CC(C)(C)n1cc(-c2ccnc(NCCNS(=O)(=O)c3ccc(C(F)(F)F)cc3)c2)c(-c2cccc(O)c2)n1	25.8
COC(=O)c1cc(=O)nc(N/N=C/c2ccco2)s1	101
COc1cc(-c2nn(C(=O)NS(=O)(=O)c3ccccc3)cc2-c2ccncc2)ccc1Cl	71.5
C=C(C)[C@@H]1CC[C@]2(C(=O)N3CCNCC3)CC[C@]3(C)[C@H](CC[C@@H]4[C@@]5(C)C/C(=C/c6ccncc6)C(=O)C(C)(C)[C@@H]5CC[C@]43C)[C@@H]12	97.2
CCOC(=O)c1ccc2c(c1)c1c(C)c3cccnc3c(C)c1n2C	22.9

---

test system: HT29 colon; assay: NCI-60 one-dose screen, 48 h; conditions: 10 µM unless noted
This is part of a sample that, as a whole, favours compounds with a hit. Of some 83,000 tested, about 20% had one in any assay. Calls of active or inactive are those of the source. How the source made its calls: active means growth percent below 10; inactive means the rest.
Possible outcomes: active, inactive

Compound	Label
COc1c2occc2c(OC)c2c(=O)c(-c3cc(-c4ccc(F)cc4)c(C#N)c(N)n3)c(C)oc12	inactive
c1ccc(Nc2nc(Nc3ccccc3)nc(Nc3ccccc3)n2)cc1	inactive
COc1ccc(-n2c(-c3ccccc3)c(-c3ccccc3)c3c(SCC(=O)N/N=C/c4ccc(Cl)cc4)ncnc32)cc1	inactive
CC12CCCC(CC(=O)c3[nH]c4ccccc4c31)C2 (stereo unspecified)	inactive
O=C(O)C1CCCN1 (stereo unspecified)	inactive
C=CCSc1n[nH]c(-c2cccs2)n1	inactive
O=C(Nc1ccncc1)C(=O)c1cn(S(=O)(=O)c2ccc(Br)cc2)c2ccccc12	inactive
Cc1ccc(N2CCN(C(C)C(N)=O)CC2)cc1 (stereo unspecified)	inactive
N[C@H]1CN(C(=O)c2cc3cc(Br)c(F)c(F)c3[nH]2)C[C@@H]1O	inactive
O=Nc1c(-c2cccc([N+](=O)[O-])c2)nc2ncccn12	inactive
COc1cc(-c2nn(-c3cccc(NC(=O)Nc4ccc(Cl)c(Cl)c4)c3)cc2-c2ccncc2)ccc1Cl	active
COC(=O)[C@]12CC[C@@H](C)[C@H](C)[C@@H]1C1=CC[C@@H]3[C@@]4(C)C(C=O)=C[C@@](C)(COC(=O)c5ccco5)[C@@H]4[C@H](O)C[C@@]3(C)[C@]1(C)CC2	active
Fc1ccc(-c2nc(-c3nc4ncccc4[nH]3)cc3c2[nH]c2ccccc23)cc1F	inactive
O=S(=O)(c1ccc(OCCO)cc1)c1ccc(OCCO)cc1	inactive
COc1ccc(Nc2ncccc2C(=O)NCc2cn(Cc3cccc(Oc4ccccc4)c3)nn2)cc1	inactive
COc1cc(-c2nn(-c3cccc(NC(=O)c4cccc(C(F)(F)F)c4)c3)cc2-c2ccncc2)ccc1Cl	active
CCN(CC)CCOc1ccc(/C(=C(/C)c2ccccc2)c2ccc(OC(C)=O)cc2)cc1	inactive
COc1cc(/C=C/C(=O)/C=C/c2cc(OC)c3c(c2)OCO3)cc2c1OCO2	active
CN(C[C@H]1Cc2c(cccc2N2CCN(c3ncccn3)CC2)CN1)[C@H]1CCCc2cccnc21	inactive
Cc1nc2c3c(ncn2n1)Oc1c(c(=O)[nH]c2ccccc12)C3c1ccc(Cl)cc1 (stereo unspecified)	inactive
N=c1ccc2nc3ccc(N)cc3sc-2c1	inactive
Cc1ccc(-c2csc(NC(=O)CCCCl)n2)cc1	inactive
Cc1cc(N/N=C/c2nc(-c3ccccc3)oc2C)c2cc(Cl)ccc2n1	active
CCOC(=O)/C(C#N)=C1/C(=O)Nc2ccccc21	inactive
Cn1cc(-c2cnc3ccc(NC(=O)Nc4ccc(F)c(Br)c4)cc3n2)cn1	inactive
CC(C)(C)n1cc(-c2ccnc(NCCCNS(=O)(=O)c3ccc(C(F)(F)F)cc3)c2)c(-c2cccc(O)c2)n1	active
